# test_name: Serum stability analysis
# Assay type: in vitro ADME
# condition_summary: human serum (Sigma H4522), 1 mM peptide in water mixed 1:1 (v/v) with serum, 37 °C, 0–72 h; SDS‐PAGE, Coomassie band intensity (ImageJ)
Where no end group is shown, it is not given here.
Provide the reported half-life at 0.5 mM of each item.

sequence_text="RQIKIWFQNRRMKWKKLVAHEISKKMKIFATI [TDIP20]" result="< 1 h"

Kindly note the recorded half-life at 0.5 mM for RQIKIWFQNRRMKWKKTFLGHLYNALVQAGIH [TDIP5] , which is ~6 h

====

# measured_on: MyD88^TIR (Homo sapiens)
# Construct: MyD88 (residues 148–296); 6xHis; made in house; host or cells: E. coli BL21 (DE3)
# Sequence (Q99836 148-296): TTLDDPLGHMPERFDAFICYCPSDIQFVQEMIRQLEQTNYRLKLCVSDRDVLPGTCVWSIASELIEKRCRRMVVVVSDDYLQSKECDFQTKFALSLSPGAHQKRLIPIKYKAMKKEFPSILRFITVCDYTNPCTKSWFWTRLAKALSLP
# test_name: T‐Surf phage library (P8 and P3) selection against MyD88^TIR, four rounds, NGS read counts
# Type: binding
# condition_summary: P8 library, selection against MyD88 TIR; rank by count before grouping
Use 1 when the recorded P8_MyD88 Rank (before) is no lower than 500; use -1 when it is lower.

# count of solved cases: 3
sequence_text=WDFASNMAQFWDRRYY class_label=1
sequence_text=TYLWWVEDERGQEYFW class_label=-1
sequence_text=DLQDLDWFYERLVSLL class_label=1

Say whether DPQDLAWSYERLVSLF shows P8_MyD88 Rank (before) of 500 or more.
1

Exam item: decide whether the reported P8_MyD88 Rank (before) for AYSPWALDELVKIIEA is at least 500.
-1

hey, is P8_MyD88 Rank (before) for this one >= 500? DPHQHQAFWDRLWEKL
1

Check this sequence for P8_MyD88 Rank (before) at or above 500: WFWQKLNYAMPHLARL
-1

Hello, I need to know if WSQPEFRAAMQAVLEL has measured P8_MyD88 Rank (before) not below 500. Thanks!
1

Given AWIWGWREALVYIGGI , state whether its P8_MyD88 Rank (before) is at least 500.
-1

====

Field: Population. Provide a value for each of the sequences that follow.
# measured_on: MyD88^TIR (Homo sapiens)
# Construct: MyD88 (residues 148–296); 6xHis; made in house; host or cells: E. coli BL21 (DE3)
# test_name: T‐Surf phage library (P8 and P3) selection against MyD88^TIR, four rounds, NGS read counts
# Format: binding
# condition_summary: P8_MyD88 pool: P8 T-Surf phage library, 4th round of selection against MyD88 TIR, share of NGS reads
One number for each entry, in %.

Here's what some known entries look like.
sequence_text=LFWANLRAALQGDLPY result=0.0116
sequence_text=PQDLQWFYERLVSLI result=0.00694
sequence_text=YYDSRWALDELLKILYANETM result=0.00617
sequence_text=ELDFSHFWLFDGHAGGEA result=0.02
sequence_text=NFVEYFVYQMMPDILE result=0.00886

Count: 4. Required value per item: Population.
1. DPQDLDWFYERLVSLFL
2. WKNALANIAEILGFEL
3. SFTDHLYAALVQAGIL
4. DPQDLQWFYERLVSLL

[0.02, 0.00732, 0.0123, 0.03]

Please state Population for every sequence in the list that follows.
1. DSLFWDRLLYSLHVTD
2. DSWTSAALYEALHALL
3. ELDFSHFWLFEAGGDA

0.00732
0.00809
0.02

Please report Population for every entry that follows.
1. WALNELLEILKAREDI
2. EWVKNSLLQYLDSQFE
3. YASSIWALNELIRILE
4. AWTDDPVGQLFFWESL
5. TSTWALDELWLILEQR
6. QWALEELRLIMELHSV

1: 0.0173; 2: 0.00886; 3: 0.0108; 4: 0.00655; 5: 0.0262; 6: 0.00809

Batch: Population for all items listed.
1. DSLFWDRLLYSL
2. HFETTEGNFYKFFLFF
3. DPQDLAWFYERLVSLF
4. SMTPLSDFWKELALVL

1. 0.00732
2. 0.00694
3. 0.00617
4. 0.0231
